Origin of measurements: patent US9637520B2

- System name: CXCR7 (Homo sapiens)
- Construct: host or cells: CHO (PathHunter CHO-CXCR7 β-arrestin cells)
- Assay remarks: CXCR7 β-arrestin recruitment assay (PathHunter CHO-CXCR7, DiscoverX), agonistic assay
- Format: cell-based
- Experimental setup: agonistic assay; CHO CXCR7 β-arrestin cells; 90 min at 37° C.; chemiluminescence; read-out: β-Arrestin EC50
Non-standard residues stand in square brackets, D forms with d. Residues, ends and D or L forms follow the SMILES beside them. Arg(Nω,Nω'-propylene) = N[C@@H](CCCNC1=NCCCN1)C(=O)O; 1Nal = N[C@@H](Cc1cccc2ccccc12)C(=O)O; hArg = N=C(N)NCCCC[C@H](N)C(=O)O
Outcome measure: EC50
State the value, then name its unit.

Data request, read-out EC50, for CC(C)C[C@@H]1NC(=O)[C@H]([C@@H](C)O)NC(=O)[C@H]2CCCN2C(=O)[C@H](Cc2c[nH]c3ccccc23)NC(=O)[C@H](CCCNC(=N)N)NC(=O)[C@@H](CCCNC(=N)N)NC1=O [compound 60, cyclo(-Leu-^DArg-Arg-Trp-^DPro-Thr-)] (cyclo(L[dR]RW[dP]T))
5.3 nM

Data request, read-out EC50, for CC[C@H](C)[C@@H]1NC(=O)[C@H]([C@@H](C)O)NC(=O)[C@H]2CCCN2C(=O)[C@H](Cc2c[nH]c3ccccc23)NC(=O)[C@H](CCCNC2=NCCCN2)NC(=O)[C@@H](CCCNC(=N)N)NC1=O [Ex. 71] (cyclo(I[dR][Arg(Nω,Nω'-propylene)]W[dP]T))
3.2 nM

Data request, read-out EC50, for CC[C@H](C)[C@@H]1NC(=O)[C@H]([C@@H](C)O)NC(=O)[C@H]2CCCN2C(=O)[C@H](Cc2cccc3ccccc23)NC(=O)[C@H](CCCNC(=N)N)NC(=O)[C@@H](CCCNC(=N)N)NC1=O [compound 16, cyclo(-Ile-^DArg-Arg-1Nal-^DPro-Thr-)] (cyclo([1Nal][dP]TI[dR]R))
17.9 nM

Data request, read-out EC50, for CC[C@H](C)[C@@H]1NC(=O)[C@H]([C@@H](C)O)NC(=O)[C@H]2CCCN2C(=O)[C@H](Cc2c[nH]c3ccccc23)NC(=O)[C@H](CCCCNC(=N)N)NC(=O)[C@@H](CCCNC(=N)N)NC1=O [compound 66, cyclo(-Ile-^DArg-hArg-Trp-^DPro-Thr-)] (cyclo(I[dR][hArg]W[dP]T))
11 nM

====

- System name: CXCR7 (Homo sapiens)
- Construct: host or cells: CHO (PathHunter CHO-CXCR7 β-arrestin cells)
- Assay remarks: CXCR7 β-arrestin recruitment assay (PathHunter CHO-CXCR7, DiscoverX), agonistic assay
- Format: cell-based
- Experimental setup: agonistic assay; CHO CXCR7 β-arrestin cells; 90 min at 37° C.; chemiluminescence; read-out: β-Arrestin EC50
Non-standard residues stand in square brackets, D forms with d. Residues, ends and D or L forms follow the SMILES beside them. *: point of attachment. Arg(Nω,Nω'-propylene) = N[C@@H](CCCNC1=NCCCN1)C(=O)O; dPro(cis-4-NH2) = N[C@H]1CN[C@@H](C(=O)O)C1; Pyrazinecarbonyl = O=C(c1cnccn1)*; Tic = O=C(O)[C@@H]1Cc2ccccc2CN1; Nle = CCCC[C@H](N)C(=O)O; Orn = NCCC[C@H](N)C(=O)O
Outcome measure: pEC50
Remember, pEC50 is on a log scale: it is -log10 of the molar concentration.

Data request, read-out pEC50, for CC[C@H](C)[C@@H]1NC(=O)[C@H]([C@@H](C)O)NC(=O)[C@H]2CCCN2C(=O)[C@H](Cc2c[nH]c3ccccc23)NC(=O)[C@H](CCCNC(=O)c2cnccn2)NC(=O)[C@@H](CCCNC(=N)N)NC1=O [compound 64] (cyclo(I[dR][Orn](Pyrazinecarbonyl)W[dP]T))
6.29

Data request, read-out pEC50, for N=C(N)NCCC[C@@H]1NC(=O)[C@H](Cc2c[nH]c3ccccc23)NC(=O)[C@@H](Cc2ccccc2)NC(=O)[C@H](CCCNC2=NCCCN2)NC(=O)[C@@H]2Cc3ccccc3CN2C(=O)[C@H]2C[C@@H](N)CN2C1=O [compound 77] (cyclo(R[dPro(cis-4-NH2)][Tic][Arg(Nω,Nω'-propylene)][dF]W))
6.74

Data request, read-out pEC50, for CCCC[C@@H]1NC(=O)[C@H]([C@@H](C)O)NC(=O)[C@H]2CCCN2C(=O)[C@H](Cc2c[nH]c3ccccc23)NC(=O)[C@H](CCCNC(=N)N)NC(=O)[C@@H](CCCNC(=N)N)NC1=O [compound 61, cyclo(-Nle-^DArg-Arg-Trp-^DPro-Thr-)] (cyclo([Nle][dR]RW[dP]T))
8.55

Data request, read-out pEC50, for CC[C@H](C)[C@@H]1NC(=O)[C@H]([C@@H](C)O)NC(=O)[C@H]2CCCN2C(=O)[C@H](Cc2c[nH]c3ccccc23)NC(=O)[C@H](CCCNC(=N)N)NC(=O)[C@@H]([C@H](C)O)NC1=O [Ex. 7, cyclo(-Ile-^DThr-Arg-Trp-^DPro-Thr-)] (cyclo(I[dT]RW[dP]T))
7.27

====

- System name: CXCR7 (Homo sapiens)
- Construct: host or cells: CHO (PathHunter CHO-CXCR7 β-arrestin cells)
- Assay remarks: CXCR7 β-arrestin recruitment assay (PathHunter CHO-CXCR7, DiscoverX), agonistic assay
- Assay type: cell-based
- Experimental setup: agonistic assay; CHO CXCR7 β-arrestin cells; 90 min at 37° C.; chemiluminescence; read-out: β-Arrestin EC50
Non-standard residues stand in square brackets, D forms with d. Residues, ends and D or L forms follow the SMILES beside them. Cha = N[C@@H](CC1CCCCC1)C(=O)O; dPip = O=C(O)[C@H]1CCCCN1
Outcome measure: pEC50
Remember, pEC50 is on a log scale: it is -log10 of the molar concentration.

Give pEC50 (CXCR7 (Homo sapiens)) of the following compound: CC[C@H](C)[C@@H]1NC(=O)[C@H]([C@@H](C)O)NC(=O)[C@H]2CCCCN2C(=O)[C@H](Cc2c[nH]c3ccccc23)NC(=O)[C@H](CCCNC(=N)N)NC(=O)[C@@H](CCCNC(=N)N)NC1=O [compound 14, cyclo(-Ile-^DArg-Arg-Trp-^DPip-Thr-)] (cyclo(I[dR]RW[dPip]T))
10.00

Give pEC50 (CXCR7 (Homo sapiens)) of the following compound: C[C@@H](O)[C@@H]1NC(=O)[C@H]2CCCN2C(=O)[C@H](Cc2c[nH]c3ccccc23)NC(=O)[C@H](CCCNC(=N)N)NC(=O)[C@@H](CCCNC(=N)N)NC(=O)[C@H](CC2CCCCC2)NC1=O [compound 62, cyclo(-Cha-^DArg-Arg-Trp-^DPro-Thr-)] (cyclo([Cha][dR]RW[dP]T))
7.42

====

- System name: CXCR7 (Homo sapiens, UniProt P25106)
- Construct: host or cells: CHO (PathHunter CHO-CXCR7 β-arrestin cells)
- Sequence (P25106 whole entry): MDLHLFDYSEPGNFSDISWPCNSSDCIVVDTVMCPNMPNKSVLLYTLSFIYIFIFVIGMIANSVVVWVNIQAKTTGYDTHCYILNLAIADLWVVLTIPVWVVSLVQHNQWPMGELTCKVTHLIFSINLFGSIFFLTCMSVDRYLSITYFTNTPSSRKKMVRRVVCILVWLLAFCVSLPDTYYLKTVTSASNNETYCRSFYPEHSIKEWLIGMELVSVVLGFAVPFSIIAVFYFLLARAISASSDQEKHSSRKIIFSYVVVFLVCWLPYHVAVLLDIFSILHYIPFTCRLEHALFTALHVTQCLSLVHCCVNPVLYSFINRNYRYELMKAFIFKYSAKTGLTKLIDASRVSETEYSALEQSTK
- Assay remarks: CXCR7 β-arrestin recruitment assay (PathHunter CHO-CXCR7, DiscoverX), agonistic assay
- Assay type: cell-based
- Experimental setup: agonistic assay; CHO CXCR7 β-arrestin cells; 90 min at 37° C.; chemiluminescence; read-out: β-Arrestin EC50
Non-standard residues stand in square brackets, D forms with d. Residues, ends and D or L forms follow the SMILES beside them. dTic = O=C(O)[C@H]1Cc2ccccc2CN1
Outcome measure: pEC50
Remember, pEC50 is on a log scale: it is -log10 of the molar concentration.

Data request, read-out pEC50, for CC[C@H](C)[C@@H]1NC(=O)[C@H]([C@@H](C)O)NC(=O)[C@H]2Cc3ccccc3CN2C(=O)[C@H](Cc2c[nH]c3ccccc23)NC(=O)[C@H](CCCNC(=N)N)NC(=O)[C@@H](CCCNC(=N)N)NC1=O [compound 67, cyclo(-Ile-^DArg-Arg-Trp-^DTic-Thr-)] (cyclo(I[dR]RW[dTic]T))
7.85

Data request, read-out pEC50, for CC[C@H](C)[C@@H]1NC(=O)[C@H]([C@@H](C)O)NC(=O)[C@H]2CCCN2C(=O)[C@H](Cc2c[nH]c3ccccc23)NC(=O)[C@H](CCCNC(=N)N)NC(=O)[C@@H](CCCNC(=N)N)NC1=O [compound 18, cyclo(-Ile-^DArg-Arg-Trp-^DPro-Thr-)] (cyclo(I[dR]RW[dP]T))
8.17

====

- System name: CXCR7 (Homo sapiens)
- Construct: host or cells: CHO (PathHunter CHO-CXCR7 β-arrestin cells)
- Assay remarks: CXCR7 β-arrestin recruitment assay (PathHunter CHO-CXCR7, DiscoverX), agonistic assay
- Assay type: cell-based
- Experimental setup: agonistic assay; CHO CXCR7 β-arrestin cells; 90 min at 37° C.; chemiluminescence; read-out: β-Arrestin EC50
Starred links: 1 amine or outer side, 2 acyl side, 3 side chain; linkers in the order of their positions; H or OH if unused. Non-standard residues stand in square brackets, D forms with d. Residues, ends and D or L forms follow the SMILES beside them. dPro(cis-4-NH2) = N[C@H]1CN[C@@H](C(=O)O)C1; X1 = O=C([C@H](CCCNCc1ccccn1)N[*:1])[*:2]; Oic = O=C(O)[C@@H]1C[C@@H]2CCCC[C@@H]2N1; 1Nal = N[C@@H](Cc1cccc2ccccc12)C(=O)O; Pro(3S-OH) = O=C(O)[C@H]1NCC[C@@H]1O
Consider the following compounds; for each one, report its EC50.
Entry rule: numbers only, all in nM.

Data request, read-out EC50, for N=C(N)NCCC[C@@H]1NC(=O)[C@@H](CCCNC(=N)N)NC(=O)[C@H](Cc2cccc3ccccc23)NC(=O)[C@@H]2[C@@H](O)CCN2C(=O)[C@H]2CCCN2C(=O)[C@H](Cc2c[nH]c3ccccc23)NC1=O [compound 52] (cyclo([1Nal][dR]RW[dP][Pro(3S-OH)]))
13.7

Data request, read-out EC50, for CC[C@H](C)[C@@H]1NC(=O)[C@H]([C@@H](C)O)NC(=O)[C@H]2CCCN2C(=O)[C@H](Cc2c[nH]c3ccccc23)NC(=O)[C@H](CCCCN)NC(=O)[C@@H](CCCNC(=N)N)NC1=O [compound 3, cyclo(-Ile-^DArg-Lys-Trp-^DPro-Thr-)] (cyclo(I[dR]KW[dP]T))
78.7

Data request, read-out EC50, for N=C(N)NCCC[C@@H]1NC(=O)[C@@H]2C[C@@H]3CCCC[C@@H]3N2C(=O)[C@H]2C[C@@H](N)CN2C(=O)[C@H](CCCNC(=N)N)NC(=O)[C@H](Cc2c[nH]c3ccccc23)NC(=O)[C@@H](Cc2ccccc2)NC1=O [compound 42] (cyclo([Oic]R[dF]WR[dPro(cis-4-NH2)]))
20.5

Data request, read-out EC50, for CC[C@H](C)[C@@H]1NC(=O)[C@H]([C@@H](C)O)NC(=O)[C@H]2CCCN2C(=O)[C@H](Cc2c[nH]c3ccccc23)NC(=O)[C@H](CCCNCc2ccccn2)NC(=O)[C@@H](CCCNC(=N)N)NC1=O [compound 70] (cyclo(I[dR][X1]W[dP]T))
4.6
